Hello, the source for this data is patent US10882856B2, in case you need it.

assayedTarget: IDO1 (Homo sapiens, UniProt P14902)
Sequence (P14902 whole entry): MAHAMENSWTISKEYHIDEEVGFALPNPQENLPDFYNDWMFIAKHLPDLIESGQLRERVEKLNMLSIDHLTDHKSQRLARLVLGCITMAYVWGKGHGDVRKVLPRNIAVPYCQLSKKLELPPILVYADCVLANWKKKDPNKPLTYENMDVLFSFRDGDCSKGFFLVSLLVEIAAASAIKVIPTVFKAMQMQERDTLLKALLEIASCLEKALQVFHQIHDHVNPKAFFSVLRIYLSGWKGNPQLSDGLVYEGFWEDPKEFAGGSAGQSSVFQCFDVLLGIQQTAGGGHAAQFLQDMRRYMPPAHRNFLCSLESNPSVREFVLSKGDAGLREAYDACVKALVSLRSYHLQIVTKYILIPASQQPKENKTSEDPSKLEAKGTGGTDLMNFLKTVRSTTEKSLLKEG
testName: IDO1 enzymatic assay
Type: biochemical
Parameters: His tag (N); made in house; host or cells: E. coli
protocolConditions: read-out: Enzyme IC50 IDO1
Would you kindly list pIC50 for each of these compounds?
pIC50 here: minus log base 10 of the concentration, concentration in moles per litre.

Which pIC50 value is on record for OCCn1cc(-c2ccc(N3CCC(C(O)c4c(C5CC5)ccn5cncc45)CC3)cc2)cn1 (stereo not shown) ?
7.33

Which pIC50 value is on record for COc1ccccc1C1CCC(C(O)c2c(C3CC3)ccn3cncc23)CC1 (stereo not shown) ?
7.26

Which pIC50 value is on record for O[C@@H](c1c(C2CC2)ccc2cncn12)[C@H]1CC[C@H](c2ccccc2)CC1 (single isomer, unassigned) [Example D101b] ?
5.89

Which pIC50 value is on record for OC(c1c(C2CC2)ccn2cncc12)C1CCC(c2ccc(C(F)(F)F)nc2)CC1 (stereo not shown) ?
7.02

Which pIC50 value is on record for O[C@H](c1c(C2CC2)ccc2cncn12)[C@H]1CC[C@H](c2cccc(F)c2)CC1 (single isomer, unassigned) [Example D156a] ?
7.70

Which pIC50 value is on record for CC(C)c1ccc2cncn2c1C(O)C1CCC(c2ccc(Cl)cc2)CC1 (stereo not shown) ?
7.24

Which pIC50 value is on record for OC(c1c(C2CC2)ccn2cncc12)C1CCN(c2ccncc2)CC1 (stereo not shown) ?
5.64

---

property: pIC50
pIC50 here: minus log base 10 of the concentration, concentration in moles per litre.

Under TDO (Homo sapiens): pIC50 value of O[C@H](c1c(C2CC2)ccn2cncc12)[C@H]1CC[C@H](c2ccc(Cl)cc2)CC1 (single isomer, unassigned) [Example C102a] ?
4.80

Under TDO (Homo sapiens): pIC50 value of O[C@H](c1c(C2CC2)ccc2cncn12)[C@H]1CC[C@H](c2ccc(Br)cc2)CC1 (single isomer, unassigned) [Example D118a] ?
5.11

Under TDO (Homo sapiens): pIC50 value of O[C@H](c1c(C2CC2)ccc2cncn12)[C@H]1CC[C@H](c2ccc(Oc3ccccc3)cc2)CC1 (single isomer, unassigned) [Example D120a] ?
5.17

Under TDO (Homo sapiens): pIC50 value of Cc1cccc([C@H]2CC[C@H]([C@H](O)c3c(C4CC4)ccn4cncc34)CC2)c1 (single isomer, unassigned) [Example C111a] ?
5.10

---

assayedTarget: UniProt:P14902
testName: IDO1 enzymatic assay
Format: biochemical
Design: His tag (N); made in house; host or cells: E. coli
protocolConditions: read-out: Enzyme IC50 IDO1
Where a name gives a salt, the structure may show the parent alone.
property: IC50

Which IC50 value is on record for O[C@@H](c1c(C2CC2)ccc2cncn12)[C@H]1CC[C@H](c2ccc(Cl)cc2F)CC1 [Example D131b, hydrochloride] ?
> 10 µM

Which IC50 value is on record for COc1ccc([C@H]2CC[C@H](C(O)c3c(C4CC4)ccc4cncn34)CC2)cc1Cl (single isomer, unassigned) [Example D148b, hydrochloride] ?
> 10 µM

Which IC50 value is on record for O[C@@H](c1c(C2CC2)ccc2cncn12)[C@H]1CC[C@H](c2ccc(Br)cc2)CC1 (single isomer, unassigned) [Example D118b] ?
> 10 µM
